assay: yeast display, Sf9 membrane polyspecificity reagent, FACS + sequencing; frameworks hold sequencing errors
property-measured: polyreactivity (PSR sort gate)

sequence-content | result
QVQLVESGGGLVQAGGSLRLICAASGITFGCNAMGWYRQAPGKEREFVAAITFSDGSTRYADSVKGRFTISRDNAKNTVYLQMNSLKPEDTAVYYCAADTWSDKYDYWGQGTQVTVSS | low polyreactivity
QVQLVESGGGLVQAGGSLRLSCAASGRTFAWYAMGRYRQAHGKERELVAVIRRGSGDTYYADSVKARFTISRDNAKNTVYLQMNSLKTEDTAVYYCAAEGRFSFYGGGRTKYSRYDYWGQGTQVTVSS | high polyreactivity
QVQLVESGGGLVQAGGSLRLSCAASGSTFYTNAMGWYRQAPGKERELVAAISNAGSTYYADSVKGRFTISRDNAKNTVYLQMNSLKPEDTAVYYCAADPIGLSSLWFRYSVSDVDYWGQGTQVTVSS | low polyreactivity
QVQLVESGGGLVQAGGSLRLSCAASGFTFTPNAMGWYRQAPGKERELVAAITSDGTTYYADSVKGRFTISRDNAKNTVYLQMNSLNPEDTAVYYCAADGGISAGANSGYDYWGQGTQVTVSS | high polyreactivity
QVQLVESGGGLVQAGGSLRLSCAASGSISGWYAMGWYRQAPGKERELVADISSIAGSTYYADSVKGRFTISRDNAKNTVYLQMNSLKPEDTAVYYCAADRGFYYEYDYWGQGTQVTVSS | low polyreactivity
QVQLVESGGGLVQAGGSLRLSCAASGSTFVYNDMGWNRQAPGKEREFVAAITYSGSTYYADSVKGRFTISRDNAKNTVYLQMNSLKPEDTAVYYCAAEYVWRFEYWGQGTQVTVSS | low polyreactivity
QVQLVESGGGLDQAGGSLRLSCAASGSTIHYYAMGWYRQAPRKERELVAVISSGGSTYYADSVKGRFTISRDNAKNTVYLQMNSLNPEDTAVYYCAKDYRDYNRGWYDYWGQGTQVTVSS | low polyreactivity
QVQLVESGGGLVQAGGSLRLSCAASGSIFTSNAMGWYRQAPGKEWELVAAITSDGAITYADSVKRRFTISRDNAKNTVYLQMNTLKPEDTAVYYCAARIRQNPGGDNSWGQGTQVTVSS | low polyreactivity

Inquiry: Would you mind telling me what polyreactivity (PSR sort gate) value was observed for `QVQLVESGGGLVQAGGSLRLSCAASGFTFIPNAMGWYRQAPGKERELVADITWSGGTTYYADSVKGRFTISRDNAKNTVYFQMNSLKPEDTAVYYCNADYLFYAFDYWGQGTQVTVSS` ?
Reply text: low polyreactivity

Inquiry: Would you mind telling me what polyreactivity (PSR sort gate) value was observed for `QVQLVESGGGLVQAGGSLRLTCAASGFTVHNKVMGWYRQAPGKERELVATISKSGGSTYYADSVKGRFTISRDNAKNTVYLEMNSLKPVDTAVYYCARRYGDYGRYGYWGQGTQVTVSS` ?
Reply text: high polyreactivity

Inquiry: Would you mind telling me what polyreactivity (PSR sort gate) value was observed for `QVQLVESGGGLVQAGGSLRLSCAASGITFFENAMGWYRQAPGKERELVAASSYSGGSTYYADSVKGRFTISRDNAKNTVYLQMYRLKPEDTAVYSCAADWYNFLYIRNRWGYGYWGQGSQVTVSS` ?
Reply text: high polyreactivity
